From: patent US11279733B2

System: E. coli ATCC 25922
Settings: ATCC 25922
Positions of bridges follow the written chain, without caps; N, C: chain ends. Non-standard residues stand in square brackets, D forms with d. Residues, ends and D or L forms follow the SMILES beside them. *: point of attachment. Decanoyl(3R-OH) = CCCCCCC[C@@H](O)CC(=O)*; dBip = N[C@H](Cc1ccc(-c2ccccc2)cc1)C(=O)O; dPhe(4-F) = N[C@H](Cc1ccc(F)cc1)C(=O)O; dIgl = N[C@@H](C(=O)O)C1Cc2ccccc2C1; Tle = CC(C)(C)[C@H](N)C(=O)O; Nonanoyl = CCCCCCCCC(=O)*; dDab = NCC[C@@H](N)C(=O)O; Octanoyl = CCCCCCCC(=O)*; dDap = NC[C@@H](N)C(=O)O; Dab = NCC[C@H](N)C(=O)O
observation_type: MIC E. coli ATCC 25922 (µg/mL)
Provide the reading as a plain figure in µg/mL.

Some entries whose results are on file:
molecule	scale_unit	MIC E. coli ATCC 25922
CCCCCCCCC(=O)N[C@@H](CCN)C(=O)N[C@H](C(=O)N[C@@H](CCN)C(=O)N[C@H]1CCNC(=O)[C@H](Cc2c[nH]c3ccccc23)NC(=O)[C@H](CCN)NC(=O)[C@H](CCN)NC(=O)[C@H](CC(C)C)NC(=O)[C@@H](Cc2ccccc2)NC(=O)[C@H](CCN)NC1=O)[C@@H](C)O [compound 9032] (Nonanoyl-[Dab]T[Dab][Dab][Dab][dF]L[Dab][Dab]W; lactam 4-C)	µg/mL	4
CCCCCCCC(=O)N[C@H](CCN)C(=O)N[C@H]1CCNC(=O)[C@H](Cc2c[nH]c3ccccc23)NC(=O)[C@H](CCN)NC(=O)[C@H](CCN)NC(=O)[C@H](CC(C)C)NC(=O)[C@@H](C2Cc3ccccc3C2)NC(=O)[C@H](CCN)NC1=O [compound 8900] (Octanoyl-[dDab][Dab][Dab][dIgl]L[Dab][Dab]W; lactam 2-C)	µg/mL	4
CCCCCCC[C@@H](O)CC(=O)N[C@H](CCN)C(=O)N[C@H]1CCNC(=O)[C@H](CC(C)C)NC(=O)[C@H](CCN)NC(=O)[C@H](CCN)NC(=O)[C@H](CC(C)C)NC(=O)[C@@H](Cc2ccccc2)NC(=O)[C@H](CCN)NC1=O [Octapeptin C4 (631), reference compound] ({Decanoyl(3R-OH)}-[dDab][Dab][Dab][dF]L[Dab][Dab]L; lactam 2-C)	µg/mL	4
CCCCCCC[C@@H](O)CC(=O)N[C@H](CCN)C(=O)N[C@H]1CCNC(=O)[C@H](CC(C)C)NC(=O)[C@H](CCCCN)NC(=O)[C@H](CCN)NC(=O)[C@H](CC(C)C)NC(=O)[C@@H](Cc2ccccc2)NC(=O)[C@H](CCN)NC1=O [compound 989] ({Decanoyl(3R-OH)}-[dDab][Dab][Dab][dF]L[Dab]KL; lactam 2-C)	µg/mL	4
CCCCCCC[C@@H](O)CC(=O)N[C@H](CN)C(=O)N[C@H]1CCNC(=O)[C@H](Cc2c[nH]c3ccccc23)NC(=O)[C@H](CCCNC(=N)N)NC(=O)[C@H](CCCCN)NC(=O)[C@H](C(C)(C)C)NC(=O)[C@@H](Cc2ccc(-c3ccccc3)cc2)NC(=O)[C@H](CCN)NC1=O [compound 8892] ({Decanoyl(3R-OH)}-[dDap][Dab][Dab][dBip][Tle]KRW; lactam 2-C)	µg/mL	4

Moving on to another molecule below.
Req: Would you kindly share the measured MIC E. coli ATCC 25922 for CCCCCCC[C@@H](O)CC(=O)N[C@H](CCN)C(=O)N[C@H]1CCNC(=O)[C@H](Cc2c[nH]c3ccccc23)NC(=O)[C@H](CCN)NC(=O)[C@H](CCN)NC(=O)[C@H](CC(C)C)NC(=O)[C@@H](Cc2ccc(F)cc2)NC(=O)[C@H](CCN)NC1=O [compound 8119] ({Decanoyl(3R-OH)}-[dDab][Dab][Dab][dPhe(4-F)]L[Dab][Dab]W; lactam 2-C) ?
Resp: 8

* * *

Test system: K. pneumoniae GN_106, PmxR
Details: GN 106, PmxR
Positions of bridges follow the written chain, without caps; N, C: chain ends. Non-standard residues stand in square brackets, D forms with d. Residues, ends and D or L forms follow the SMILES beside them. *: point of attachment. dPhe(4-CN) = N#Cc1ccc(C[C@@H](N)C(=O)O)cc1; Bip = N[C@@H](Cc1ccc(-c2ccccc2)cc1)C(=O)O; Decanoyl(3R-OH) = CCCCCCC[C@@H](O)CC(=O)*; 1Nal = N[C@@H](Cc1cccc2ccccc12)C(=O)O; 2Nal = N[C@@H](Cc1ccc2ccccc2c1)C(=O)O; 3Pal = N[C@@H](Cc1cccnc1)C(=O)O; dDab = NCC[C@@H](N)C(=O)O; X8 = CC(C)CCCC(C)CC(=O)*; dDap = NC[C@@H](N)C(=O)O; Dab = NCC[C@H](N)C(=O)O
Catalogue of MIC K. pneumoniae GN_106, PmxR readings, one per entry.
Provide the reading as a plain figure in µg/mL.

Some entries whose results are on file:
compound	target_under_test	MIC K. pneumoniae GN_106, PmxR (µg/mL)
CCCCCCC[C@@H](O)CC(=O)N[C@H](CCN)C(=O)N[C@H]1CCNC(=O)[C@H](Cc2ccc3ccccc3c2)NC(=O)[C@H](CCN)NC(=O)[C@H](CCN)NC(=O)[C@H](CC(C)C)NC(=O)[C@@H](Cc2ccccc2)NC(=O)[C@H](CCN)NC1=O [compound 8908] ({Decanoyl(3R-OH)}-[dDab][Dab][Dab][dF]L[Dab][Dab][2Nal]; lactam 2-C)	K. pneumoniae GN_106, PmxR	4
CCCCCCC[C@@H](O)CC(=O)N[C@H](CCN)C(=O)N[C@H]1CCNC(=O)[C@H](Cc2c[nH]c3ccccc23)NC(=O)[C@H](CCN)NC(=O)[C@H](CCN)NC(=O)[C@H](Cc2ccc3ccccc3c2)NC(=O)[C@@H](Cc2ccccc2)NC(=O)[C@H](CCN)NC1=O [compound 8832] ({Decanoyl(3R-OH)}-[dDab][Dab][Dab][dF][2Nal][Dab][Dab]W; lactam 2-C)	K. pneumoniae GN_106, PmxR	8
CCCCCCC[C@@H](O)CC(=O)N[C@H](CCN)C(=O)N[C@H]1CCNC(=O)[C@H](Cc2cccnc2)NC(=O)[C@H](CCN)NC(=O)[C@H](CCN)NC(=O)[C@H](CC(C)C)NC(=O)[C@@H](Cc2ccccc2)NC(=O)[C@H](CCN)NC1=O [compound 8907] ({Decanoyl(3R-OH)}-[dDab][Dab][Dab][dF]L[Dab][Dab][3Pal]; lactam 2-C)	K. pneumoniae GN_106, PmxR	8
CC(C)CCCC(C)CC(=O)N[C@H](CCN)C(=O)N[C@H]1CCNC(=O)[C@H](CC(C)C)NC(=O)[C@H](CCN)NC(=O)[C@H](CCN)NC(=O)[C@H](Cc2ccccc2)NC(=O)[C@@H](CC(C)C)NC(=O)[C@H](CCN)NC1=O (stereo partly drawn) [compound 6515] (X8-[dDab][Dab][Dab][dL]F[Dab][Dab]L; lactam 2-C)	K. pneumoniae GN_106, PmxR	32
CCCCCCC[C@@H](O)CC(=O)N[C@H](CCN)C(=O)N[C@H]1CCNC(=O)[C@H](CC(C)C)NC(=O)[C@H](CCN)NC(=O)[C@H](CCN)NC(=O)[C@H](CC(C)C)NC(=O)[C@@H](Cc2ccc(O)cc2)NC(=O)[C@H](CCN)NC1=O [compound 5008] ({Decanoyl(3R-OH)}-[dDab][Dab][Dab][dY]L[Dab][Dab]L; lactam 2-C)	K. pneumoniae GN_106, PmxR	16
CCCCCCC[C@@H](O)CC(=O)N[C@H](CCN)C(=O)N[C@H]1CCNC(=O)[C@H](Cc2c[nH]c3ccccc23)NC(=O)[C@H](CCN)NC(=O)[C@H](CCN)NC(=O)[C@H](CC(C)C)NC(=O)[C@@H](Cc2ccc(C#N)cc2)NC(=O)[C@H](CCN)NC1=O [compound 8105] ({Decanoyl(3R-OH)}-[dDab][Dab][Dab][dPhe(4-CN)]L[Dab][Dab]W; lactam 2-C)	K. pneumoniae GN_106, PmxR	8
CCCCCCC[C@@H](O)CC(=O)N[C@H](CCN)C(=O)N[C@H]1CCNC(=O)[C@H]([C@@H](C)O)NC(=O)[C@H](CCN)NC(=O)[C@H](CCN)NC(=O)[C@H](Cc2ccc(-c3ccccc3)cc2)NC(=O)[C@@H](Cc2ccccc2)NC(=O)[C@H](CCN)NC1=O [compound 5607] ({Decanoyl(3R-OH)}-[dDab][Dab][Dab][dF][Bip][Dab][Dab]T; lactam 2-C)	K. pneumoniae GN_106, PmxR	32
CCCCCCC[C@@H](O)CC(=O)N[C@H](CN)C(=O)N[C@H]1CCNC(=O)[C@H](CC(C)C)NC(=O)[C@H](CCN)NC(=O)[C@H](CCN)NC(=O)[C@H]([C@@H](C)O)NC(=O)[C@@H](Cc2ccccc2)NC(=O)[C@H](CCN)NC1=O [compound 9295] ({Decanoyl(3R-OH)}-[dDap][Dab][Dab][dF]T[Dab][Dab]L; lactam 2-C)	K. pneumoniae GN_106, PmxR	4

Req: Would you kindly share the measured MIC K. pneumoniae GN_106, PmxR for CCCCCCC[C@@H](O)CC(=O)N[C@H](CCN)C(=O)N[C@H]1CCNC(=O)[C@H](Cc2cccc3ccccc23)NC(=O)[C@H](CCN)NC(=O)[C@H](CCN)NC(=O)[C@H](CC(C)C)NC(=O)[C@@H](Cc2ccccc2)NC(=O)[C@H](CCN)NC1=O [compound 8909] ({Decanoyl(3R-OH)}-[dDab][Dab][Dab][dF]L[Dab][Dab][1Nal]; lactam 2-C) ?
Resp: 4
